- Tested on: CEM-SS cells
- TEST PROTOCOL: Cytotoxicity by uptake of TdR-H3 into total DNA in CEM-SS cells
- Format: cell-based
- CONDITIONS: serial concentrations of compound
REPORTED METRIC: IC50 (µM)
# unit: µM | format: bare number

Here are 3 molecules together with their reported answers.
>  <MOLECULE>
CCCCCCCCCCCCOCC(COP(=O)([O-])OCC[N+](C)(C)C)OCCCCCCCCCC (stereo not shown)

>  <TARGET SYSTEM>
CEM-SS cells

>  <VALUE UNIT>
µM

>  <IC50>
75.7

$$$$
>  <MOLECULE>
CCCCCCCCCCCCOC(CNC(=O)CCCCCCCCCCC)COP(=O)([O-])OCC[N+](C)(C)C (stereo not shown)

>  <TARGET SYSTEM>
CEM-SS cells

>  <VALUE UNIT>
µM

>  <IC50>
36.6

$$$$
>  <MOLECULE>
CCCCCCCCCCCC(=O)NCC(COP(=O)([O-])OCC[N+](C)(C)C)OCCCCCCCC (stereo not shown)

>  <TARGET SYSTEM>
CEM-SS cells

>  <VALUE UNIT>
µM

>  <IC50>
67.2

$$$$

# context switch: different molecule, same IC50
Form field IC50, entry CCCCCCCCCCCC(=O)NCC(COP(=O)([O-])OCC[N+](C)(C)C)OCCCCCCCCCC (stereo not shown) : 31.6

Values were extracted from patent US7141557B2.
